method: yeast display, Sf9 membrane polyspecificity reagent, FACS + sequencing; frameworks hold sequencing errors
parameter: polyreactivity (PSR sort gate)

macromoleculeSequence	measurement
QVQLVESGGGLVQAGGTLRLSCAASGSTFVRNAMGWYRQPPGKERELVAAISVDGSSTYYADSVKGRFTISRDNAKNTVYLQMNSLKPEDTAVYYCNADWDYRDFYDITYDYWGQGTQVTVSS	low polyreactivity
QVQLVESGGGLVQAGGSLRLSCAASGRIFRYYAMGWYRQAPGKERELVAAISSGGSTNYADSVKGRFTISRDNAKNTVYIQMNSLKPEDTPVYYCAAEWYSYGARSSYGGSRNDYWGQGTQVTVSS	low polyreactivity
